measurementType: melting point

QUERY: Please report the measured melting point for "CCc1nc2ccc(Cl)cn2c1C(=O)OCc1ccc(-c2ccccc2)cc1"
RESULT: 122.3 to 123 °C

QUERY: Please report the measured melting point for "CCc1nc2ccc(Cl)cn2c1C(=O)NCc1ccc(Oc2ccc(F)cc2)cc1"
RESULT: 168 to 169 °C

QUERY: Please report the measured melting point for "CCc1nc2ccc(Cl)cn2c1C(=O)NCc1ccc(C#N)cc1"
RESULT: 223 to 224 °C
